Values were extracted from a melting point compilation (Tetko et al.; mined from patent text by program, amines drawn as free bases though some values may be those of a salt).

readout label: melting point

Some compounds with known melting point results, for comparison:
CCC(O)c1oc(C)cc(=O)c1O (configuration not stated); 134 to 136 °C
CCN(CC)CCCNC(=O)Cn1ncc(-c2ccc(F)cc2)c1-c1ccccc1; 82 to 83 °C
N#Cc1c(Cl)nc(OCC(F)(F)F)nc1N1CCc2ccccc2CC1; 165 to 167 °C

Query compound follows.
Ask | Output melting point of O=C(Nc1ccc(C(=O)N2Cc3ccccc3Sc3ccccc32)cc1)c1ccccc1Cl
Reply | 116 to 119 °C

* * *

Form field: melting point (one value per entry).

Some molecules with known melting point results, for comparison:
CN1C(=O)C2CC(c3ccccc3)(C2)C1=O; 175 to 176 °C
Clc1cccc(C(c2ccnc3ccccc23)n2cnnc2)c1 (centres undefined); 203 °C
NC(=O)CC1CN=C(c2cc3cc(OC(F)(F)F)cc(NS(=O)(=O)c4cccs4)c3[nH]2)S1 (centres undefined); 239 to 240 °C
CCON=C(C)c1cccc(S(N)(=O)=O)c1; 157 to 158 °C
CC(C)(C)CNc1nc(Cl)ncc1CN=[N+]=[N-]; 133 to 136 °C
CC(C)Cn1c(CNC(=O)OC(C)(C)C)c(-c2ccccc2)c2cc(C(N)=S)ccc2c1=O; 228 to 229 °C

Ask | Output melting point of COC(=O)C#CC(=O)c1ccc2c(c1)OCO2
Reply | 95 to 97 °C

Ask | Output melting point of CC(C)(C)OC(=O)NNC(=O)N1CCN(NC(=O)OCc2ccccc2)C1=O
Reply | 195 to 198 °C

Ask | Output melting point of COC(=O)c1ccc(-c2ccc3nnn(Cc4cc5cccnc5cc4F)c3n2)cc1F
Reply | 213 to 215 °C

* * *

Form field: melting point (one value per entry).

COC(=O)C(C)(C)Cc1[nH]c2cc(OC)ccc2c1SC(C)(C)C; 133 °C
CCOC(=O)n1c(=O)n(CCCl)c2cc(OC)ccc21; 116 to 118 °C
O=C(O)CC(CC(=O)O)NC(=O)OCC1c2ccccc2-c2ccccc21; 189 to 190 °C

Ask | Output melting point of O=C(CCc1ccccc1)N[C@H](Cc1ccc(C(F)(F)F)cc1)[C@@H](O)c1ccccc1 (racemic)
Reply | 147 to 148 °C

Ask | Output melting point of COc1ccc(CCCc2c[nH]c(C(=O)N3CCC[C@@H]3C(=O)N[C@H]3CC(=O)O[C@@H]3OCc3ccccc3)n2)cc1
Reply | 62 to 65 °C

* * *

readout label: melting point

Nc1nc(-c2ccccc2)nc2c1=NCC(=O)N=2; 330 to 332 °C
COc1cc(COC(=O)CCc2nc(-c3ccc(Cl)cc3)co2)cc(OC)c1OC; 86 to 87 °C
C1=COc2ccc3[nH]c4c(c3c2=C1)C=CN=CC=4; > 177 °C

Ask | Output melting point of CCC1(CCCCCl)C(=O)Nc2ccccc21 (centres undefined)
Reply | 104 to 105 °C

Ask | Output melting point of N#CCc1nc(C(=O)c2ccc(Cl)cc2)no1
Reply | 81 to 84 °C

Ask | Output melting point of CC(=O)OCc1nc2c([N+](=O)[O-])cc(Br)cc2n1C
Reply | 143 to 145 °C

* * *

Form field: melting point (one value per entry).

Oc1ccc2c(c1)OCC(N1CCC(O)(c3ccc(F)cc3)CC1)C2O (configuration not stated); 159 to 160 °C
O=C(NCC(F)(F)F)c1cc(Cl)cc(Cl)c1; 145 to 147 °C
COC(=O)c1csc(-c2ccc([N+](=O)[O-])cc2)n1; 224 to 227 °C
Nc1nc(Cl)nc(C2CC2)n1; 139 to 142 °C

Ask | Output melting point of Cc1ccc(C(=O)NN=C(N)CS(=O)(=O)c2ccccc2)o1
Reply | 219 to 220 °C

Ask | Output melting point of Cc1c(Cl)cc(-c2ccc(OC(=O)N3CCOCC3)nn2)cc1Cl
Reply | 155 to 159 °C

Ask | Output melting point of c1ccc(N(Cc2cccc3ccccc23)c2ccccc2)cc1
Reply | 170 to 172 °C
